Source listed as the supplement of paper PMC10065799.

# tested_target: FGFR1 (UniProt P11362)
# Sequence (P11362 whole entry, looked up): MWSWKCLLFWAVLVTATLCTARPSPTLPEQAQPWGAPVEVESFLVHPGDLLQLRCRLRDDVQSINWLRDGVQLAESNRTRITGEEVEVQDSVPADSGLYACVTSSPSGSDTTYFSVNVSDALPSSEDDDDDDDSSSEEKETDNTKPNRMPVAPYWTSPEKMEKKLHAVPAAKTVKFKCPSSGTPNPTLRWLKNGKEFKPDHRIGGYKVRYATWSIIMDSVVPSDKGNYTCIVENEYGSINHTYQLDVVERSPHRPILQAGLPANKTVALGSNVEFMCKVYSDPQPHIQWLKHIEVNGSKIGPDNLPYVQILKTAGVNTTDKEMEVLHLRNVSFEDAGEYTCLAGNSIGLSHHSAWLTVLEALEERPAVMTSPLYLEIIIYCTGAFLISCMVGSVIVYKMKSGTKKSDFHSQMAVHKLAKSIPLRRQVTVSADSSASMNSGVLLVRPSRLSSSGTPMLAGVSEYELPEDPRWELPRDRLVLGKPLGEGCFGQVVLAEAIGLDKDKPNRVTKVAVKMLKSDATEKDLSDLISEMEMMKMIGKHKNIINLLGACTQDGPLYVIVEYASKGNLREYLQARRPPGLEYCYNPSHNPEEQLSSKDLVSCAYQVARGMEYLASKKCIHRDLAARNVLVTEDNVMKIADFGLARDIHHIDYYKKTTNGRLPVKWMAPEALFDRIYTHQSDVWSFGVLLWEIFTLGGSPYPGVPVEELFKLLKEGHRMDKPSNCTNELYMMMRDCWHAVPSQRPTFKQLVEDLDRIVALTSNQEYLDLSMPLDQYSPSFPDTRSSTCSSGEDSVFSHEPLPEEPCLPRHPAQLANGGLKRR
# experiment_summary: phosphorylation enrichment, bacterial display (enrichment ratio); higher = better substrate or ligand; peptides without Tyr show the background;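 further: 11-residue human phosphosite peptides and single-mutation variants displayed on the E. coli surface, counted by deep sequencing, each peptide's frequency after selection divided by its frequency in the unselected input library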;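 further: frequency after pTyr selection over input frequency; kinase dosed for 20-30% of maximal phosphorylation in three min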
# phosphorylation enrichment values compiled below
Number only, please.

Consider the reported phosphorylation enrichment for these sequences:
- KLPYLYDDPFS [GPX2_Y127_P126L]: 0.489
- TFGNLYGSRKQ [YIPF7_Y59_A54T_YF]: 0.514
- ENRKFYMDLKE [PURA_Y156_YF]: 0.503

Which phosphorylation enrichment is listed for TIWDSYTTNKV [GNB1_Y85_I80T] ?
0.509

What do you have for NPQKPYFIRLF [WAS_Y83_S82P_YF] ?
0.511
